Tested on: 422866-222-R5-J1-PDC spheroid viability;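 note: spheroids exposed to agents for seven days before readout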
Experiment: Anticancer human tumor 422866-222-R5-J1-PDC patient-derived pancreatic adenocarcinoma cell line growth inhibition [CLK]
Conditions: second compound 0.0316 µM; first compound 3.16 µM; hits give low values; spheroids with HUVEC and MSC
Quick rule for you: viability, T/C under 60% gets Y, anything else gets N.

A record lists O=C(c1cc(Cc2n[nH]c(=O)c3ccccc23)ccc1F)N1CCN(C(=O)C2CC2)CC1 + CNC(=O)c1ccc(Nc2nc(OC3CCCC3)c3c(-c4ccc5nc(C)oc5c4)c[nH]c3n2)c(OC)c1 . Is its viability, T/C below 60%? N

A record lists CC(Nc1ccc2c(c1)OCCn1cc(N3C(=O)OCC3C(F)F)nc1-2)C(N)=O (configuration not stated) + CNC(=O)c1ccc(Nc2nc(OC3CCCC3)c3c(-c4ccc5nc(C)oc5c4)c[nH]c3n2)c(OC)c1 . Is its viability, T/C below 60%? Y

A record lists C#Cc1c(F)ccc2cc(O)cc(-c3ncc4c(N5CC6CCC(C5)N6)nc(OCC56CCCN5CC(F)C6)nc4c3F)c12 (configuration not stated) + CNC(=O)c1ccc(Nc2nc(OC3CCCC3)c3c(-c4ccc5nc(C)oc5c4)c[nH]c3n2)c(OC)c1 . Is its viability, T/C below 60%? Y

A record lists COC1C=CCC(C)C(C)S(=O)(=O)NC(=O)c2ccc3c(c2)N(CC2CCC21)CC1(CCCc2cc(Cl)ccc21)CO3 (configuration not stated) + CN1CCN(c2cc(C(=O)Nc3cc4cc(-c5cnn(C)c5)ccc4cn3)ccn2)CC1 . Is its viability, T/C below 60%? N
